- TESTED_SYSTEM: T1, D-TrkA (human, all residues D-amino acids (glycine achiral); biotin on the N-terminus; C-terminal amide)
- T1 construct: also called mirror image of the D5 domain of human TrkA
- T1 chain: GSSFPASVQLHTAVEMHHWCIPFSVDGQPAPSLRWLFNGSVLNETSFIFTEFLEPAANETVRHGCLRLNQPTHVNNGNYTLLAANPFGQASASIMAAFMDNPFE
- ASSAY_METHOD_TEXT: BLI; Octet RED96e; biotinylated target immobilised on streptavidin biosensors, binder in solution; PBS pH 7.4 with 0.02% TWEEN; 25 °C; global fit
- EXPERIMENTAL_PARAMETERS: both partners purified
PROPERTY_NAME: Kd (nM)
Give just the numeric value; nM need not be written.

Value of measured Kd for the entry L-57445-evo_(D-TrkA) (designed binder, the methods name only the three parents) STQELVEELLELVRKDLEEARKLAKEIVKELGLSPELRFFLQLAIALAQRDPEVARRILERALNL : 7.84
